Test system: KRAS-mutant PDC complex spheroid viability;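 also: viability read after seven days of compound exposure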
protocol: Anticancer human tumor 186277-243-T-J2-PDC patient-derived colon adenocarcinoma cell line growth inhibition [KRAS2]; active = viability on the fitted dose curve at most 10% of control; inactive = the rest
test_context: second compound 3.16 µM; first compound 1 µM
One label from this list, please: y (active), n (inactive)

What call does the record list for COc1cc(Nc2ncc3c(n2)-c2ccc(Cl)cc2C(c2c(F)cccc2OC)=NC3)ccc1C(=O)O + C=CC(=O)N1CCN(c2nc(OCC3CCCN3C)nc3c2CCN(c2cccc4cccc(C)c24)C3)CC1CC#N ?
y

What call does the record list for CC(C)NCC(C(=O)N1CCN(c2ncnc3c2C(C)CC3O)CC1)c1ccc(Cl)cc1 (stereo not given) + COc1cc2nc(C)nc(NC(C)c3cc(N)cc(C(F)(F)F)c3)c2cc1OC1CCOC1 ?
y

What call does the record list for CCNC(=O)CC1N=C(c2ccc(Cl)cc2)c2cc(OC)ccc2-n2c(C)nnc21 (stereo not given) + C=CC(=O)N1CCN(c2nc(=O)n(-c3c(C)ccnc3C(C)C)c3nc(-c4c(O)cccc4F)c(F)cc23)C(C)C1 ?
n

What call does the record list for CC1(C)CCC(CN2CCN(c3ccc(C(=O)NS(=O)(=O)c4ccc(NCC5CCOCC5)c([N+](=O)[O-])c4)c(Oc4cnc5[nH]ccc5c4)c3)CC2)=C(c2ccc(Cl)cc2)C1 + CNCc1ccccc1-c1csc(C(C)Nc2nc(C)nc3cc(OC)c(OC)cc23)c1 ?
n

What call does the record list for CC1OCC2(CCN(c3cnc(Sc4ccnc(N)c4Cl)c(N)n3)CC2)C1N (stereo not given) + C=CC(=O)N1CCN(c2nc(OCC3CCCN3C)nc3c2CCN(c2cccc4cccc(C)c24)C3)CC1CC#N ?
y
